Recorded values, source patent US7323454B2.

# ASSAY REMARKS: Pharmacokinetics of etonogestrel esters in the rabbit after one i.m. injection; plasma etonogestrel by LC-MSMS
# Assay type: in vivo
# REPORTED CONDITIONS: one i.m. injection, 20 mg/kg in arachis oil, parent etonogestrel measured
MEASUREMENT KIND: initial peak level of etonogestrel in plasma (nmol/L)

{"COMPOUND": "C#C[C@]1(OC(=O)CCCCCC)CC[C@H]2[C@@H]3CCC4=CC(=O)CC[C@@H]4[C@H]3C(=C)C[C@@]21CC [Etonogestrel-heptanoate]", "U": "nmol/L", "OBSERVED": 120}
{"COMPOUND": "C#C[C@]1(OC(=O)CCCCCCCCCCC)CC[C@H]2[C@@H]3CCC4=CC(=O)CC[C@@H]4[C@H]3C(=C)C[C@@]21CC [etonogestrel dodecanoate]", "U": "nmol/L", "OBSERVED": 9}
{"COMPOUND": "C#C[C@]1(OC(=O)CCCCCCCCCC)CC[C@H]2[C@@H]3CCC4=CC(=O)CC[C@@H]4[C@H]3C(=C)C[C@@]21CC [etonogestrel undecanoate]", "U": "nmol/L", "OBSERVED": 13}
{"COMPOUND": "C#CC1(OC(=O)CCCCCCCCC)CCC2C3CCC4=CC(=O)CCC4C3C(=C)CC21CC (stereo not shown) [etonogestrel decanoate]", "U": "nmol/L", "OBSERVED": 24}
